testTarget: DgoT (Escherichia coli, UniProt A0A0H2Z574, R126Q)
Sequence (A0A0H2Z574 1-445 R126Q): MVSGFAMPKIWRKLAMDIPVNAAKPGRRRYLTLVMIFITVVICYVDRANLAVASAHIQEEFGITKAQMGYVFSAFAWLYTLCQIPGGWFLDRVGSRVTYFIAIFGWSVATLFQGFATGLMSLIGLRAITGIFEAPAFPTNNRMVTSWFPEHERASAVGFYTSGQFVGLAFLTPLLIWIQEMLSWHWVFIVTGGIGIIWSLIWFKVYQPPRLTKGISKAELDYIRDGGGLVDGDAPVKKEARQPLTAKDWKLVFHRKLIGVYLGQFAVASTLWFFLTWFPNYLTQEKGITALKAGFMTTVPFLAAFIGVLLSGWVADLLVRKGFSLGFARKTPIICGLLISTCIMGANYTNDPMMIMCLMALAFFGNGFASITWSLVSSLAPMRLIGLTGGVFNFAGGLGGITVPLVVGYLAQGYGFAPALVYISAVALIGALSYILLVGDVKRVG
assayDetails: SSM electrophysiology, kobs of pre-steady state current vs concentration
resultType: Kd

>>> print(df.to_string())
                                   molecule  result
0  O=C(O)[C@H](O)[C@@H](O)[C@@H](O)[C@H](O)CO [D-galactonate]   22 mM
